Measured values drawn from patent US10752615B2 for this set.

biological target: TXK (Homo sapiens (Human), UniProt P42681)
Sequence (P42681 whole entry): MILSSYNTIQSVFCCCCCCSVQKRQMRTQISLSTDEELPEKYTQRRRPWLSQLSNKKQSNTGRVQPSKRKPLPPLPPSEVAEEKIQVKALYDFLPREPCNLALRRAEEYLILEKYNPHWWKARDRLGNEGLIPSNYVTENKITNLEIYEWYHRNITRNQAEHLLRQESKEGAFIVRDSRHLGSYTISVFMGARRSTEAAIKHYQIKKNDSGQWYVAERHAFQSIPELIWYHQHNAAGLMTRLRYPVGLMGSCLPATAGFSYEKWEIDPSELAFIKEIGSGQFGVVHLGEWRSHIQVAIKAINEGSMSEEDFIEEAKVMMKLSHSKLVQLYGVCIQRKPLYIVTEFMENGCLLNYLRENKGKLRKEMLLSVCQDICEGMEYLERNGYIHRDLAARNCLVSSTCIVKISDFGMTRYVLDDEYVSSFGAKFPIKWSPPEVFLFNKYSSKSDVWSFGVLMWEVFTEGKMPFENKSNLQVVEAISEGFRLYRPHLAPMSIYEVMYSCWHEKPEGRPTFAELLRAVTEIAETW
pIC50: −log10 of the molar value.
Quick rule: pIC50 of at least 9 means criterion met, below that means criterion not met.

Q: Decide: pIC50 of C=CC(=O)N1CC[C@]2(C1)C[C@H](n1c(NC(=O)c3ccc(-c4cnco4)s3)nc3cc(N(C)C(=O)C4CCOCC4)ccc31)C2 [Compound 51] >= 9?
Result: criterion met

Q: API: above_or_equal(metric=pIC50, cutoff=9) for item C=CC(=O)N1CC[C@]2(C1)C[C@H](n1c(NC(=O)c3ccc(-c4ccccc4)nc3)nc3cc(CN[C@@H](C)C(C)(C)C)ccc31)C2 [Compound 33]
Result: criterion met

Q: Given C=CC(=O)N1CCC[C@]2(C1)C[C@H](n1c(NC(=O)c3ccc(C(F)F)s3)nc3cc(CN[C@@H](C)C(C)(C)C)ccc31)C2 [Compound 9] , state whether its pIC50 is at least 9.
Result: criterion met

Q: Decide: is the reported value of pIC50 for C=CC(=O)N1CC[C@]2(C1)C[C@H](n1c(NC(=O)c3ccc(-c4cnccn4)s3)nc3ccccc31)C2 [Compound 132] equal to or greater than 9?
Result: criterion not met

Q: Form field: pIC50 at least 9? Entry: C=CC(=O)N1CC[C@]2(C1)C[C@@H](n1c(NC(=O)c3ccc(-c4cnco4)s3)nc3cc(Cl)ccc31)C2 [Compound 71]
Result: criterion not met

Q: Decide: is the reported value of pIC50 for C=CC(=O)N1CC[C@]2(C1)C[C@H](n1c(NC(=O)c3ccc(-c4ccc(NC)nc4)s3)nc3ccccc31)C2 [Compound 117] equal to or greater than 9?
Result: criterion not met

Q: Test whether the compound C=CC(=O)N1CC[C@]2(C1)C[C@H](n1c(NC(=O)c3ccc(-c4cc(N)ncn4)s3)nc3ccccc31)C2 [Compound 141] records pIC50 of 9 or higher.
Result: criterion met

Q: Could you verify whether the entry C=CC(=O)N1CC[C@]2(C1)C[C@H](n1c(NC(=O)c3ccc(-c4cc[nH]c(=O)c4)s3)nc3cc(CO)ccc31)C2 [Compound 29] shows pIC50 of no less than 9?
Result: criterion met

Q: Item C=CC(=O)N1CC[C@]2(C1)C[C@H](n1c(NC(=O)c3ccc(-c4c[nH]nc4C4CC4)s3)nc3ccccc31)C2 [Compound 129] with pIC50 of 9 or above?
Result: criterion met
